Would you kindly list EC50 for each of these binders?
Tested on: T1, full-length beta-Catenin (Uniprot ID P35222) (Homo sapiens (Human), UniProt P35222 2-781)
T1 construct: also called B-Catenin; bCat
T1 sequence: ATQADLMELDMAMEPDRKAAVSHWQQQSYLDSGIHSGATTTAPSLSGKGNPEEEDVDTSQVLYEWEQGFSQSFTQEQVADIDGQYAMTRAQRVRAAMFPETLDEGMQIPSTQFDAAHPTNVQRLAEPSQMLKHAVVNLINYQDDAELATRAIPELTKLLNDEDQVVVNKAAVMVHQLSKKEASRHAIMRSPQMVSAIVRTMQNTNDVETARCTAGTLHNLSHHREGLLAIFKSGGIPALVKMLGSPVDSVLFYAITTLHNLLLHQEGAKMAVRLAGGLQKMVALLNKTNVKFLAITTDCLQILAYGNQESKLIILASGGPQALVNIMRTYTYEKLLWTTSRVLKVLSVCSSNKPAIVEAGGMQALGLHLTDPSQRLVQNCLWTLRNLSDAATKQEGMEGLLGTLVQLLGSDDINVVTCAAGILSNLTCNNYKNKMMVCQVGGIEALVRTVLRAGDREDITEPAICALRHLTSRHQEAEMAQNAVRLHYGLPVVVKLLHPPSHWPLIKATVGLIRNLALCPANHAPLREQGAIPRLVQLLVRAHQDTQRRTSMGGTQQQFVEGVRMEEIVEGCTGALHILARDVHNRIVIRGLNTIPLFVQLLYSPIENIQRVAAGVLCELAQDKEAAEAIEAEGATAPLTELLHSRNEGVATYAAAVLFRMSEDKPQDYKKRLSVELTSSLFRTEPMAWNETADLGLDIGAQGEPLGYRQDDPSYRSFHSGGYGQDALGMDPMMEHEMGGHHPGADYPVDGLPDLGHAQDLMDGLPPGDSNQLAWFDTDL
Procedure details: Alphascreen competition; biotin-TCF4(10-53) probe with full-length beta-catenin
Starred links: 1 amine or outer side, 2 acyl side, 3 side chain; linkers in the order of their positions; H or OH if unused. Positions of bridges follow the written chain, without caps; N, C: chain ends. Non-standard residues stand in square brackets, D forms with d. Primed or numbered codes have the meaning given here. PyrS″ = (S)-1-((allyloxy)carbonyl)-3-aminopyrrolidine-3-carboxylic acid (stapling residue), C=CCOC(=O)N1CC[C@@](N[*:1])(C(=O)[*:2])C1; Phe(4-CONH2) = NC(=O)c1ccc(C[C@H](N)C(=O)O)cc1; hPhe = N[C@@H](CCc1ccccc1)C(=O)O; R8 = C=CCCCCCC[C@@](C)(N)C(=O)O
Answers are plain numbers, in µM.

Binder	EC50, µM
Ac-FDA[R8]D[hPhe]AAFV[PyrS″]FWQ-NH2 (staple 4-11; not fully specified; printed as Ac-Phe-Asp-Ala-R8-Asp-hPhe-Ala-Ala-Phe-Val-PyrS-Phe-Trp-Gln-NH2, Stapled peptide composition; same description as I-98, separate earlier-eluting HPLC peak (staple isomer)) [I-97]	7.01
Ac-FDA[R8]DDAA[Phe(4-CONH2)]V[PyrS″]FWQ-NH2 (staple 4-11, Stapled peptide composition; same description as I-91, separate later-eluting HPLC peak (staple isomer)) [I-92]	9.15

Supply recorded EC50 for XDAXDNAAFVXFWQ (not fully specified; as printed: Ac-PL3-Asp-Ala-B5-Asp-Asn-Ala-Ala-Phe-Val-S8-Phe-Trp-Gln-NH2; staples PL3(1)-B5(4) and B5(4)-S8(11), Stitched (two-staple) peptide composition) [I-125] here.
0.569
